# testTarget: UniProt P00433
# condition: 0.01 mg/ml, 10µl test compound
resultType: (c) Increase in signal: background ratio

compound | testTarget | resultType | reported
OCC(CO)(CO)COB(O)O [Compound 1017, pentaerythritol borate] | UniProt P00433 | (c) Increase in signal: background ratio | N (N = no)
OB(O)c1cccc(Cl)c1Cl | UniProt P00433 | (c) Increase in signal: background ratio | N (N = no)
OB(O)c1cccc2ccccc12 | UniProt P00433 | (c) Increase in signal: background ratio | N (N = no)

====

# testTarget: HRP Type VIA (Armoracia rusticana)
# condition: 0.1 mg/ml, 10µl test compound
resultType: (b) Increase in signal (with HRP, with test cpd.)

molecule | reported
Cc1ccccc1B(O)O | N
OCC(CO)(CO)COB(O)O [Compound 1017, pentaerythritol borate] | Y
OB(O)c1cc(N=Nc2cccc(C(F)(F)F)c2)ccc1O | Y
OB(O)c1ccc(Oc2ccccc2)cc1 | N
CC(C)COB(c1ccccc1)c1ccccc1 | N
Nc1c(Cl)cc(Cl)c(B(O)O)c1Cl | Y
CSCc1ccccc1B(O)O | N
OB(O)c1cc(Cl)cc(Cl)c1 | N
OB(O)c1c(Cl)cc(Cl)cc1Cl | N
OB(O)c1ccccc1Cl | N
OB(O)c1ccc(B(O)O)cc1 | N
O=C(O)c1ccc(B(O)O)cc1[N+](=O)[O-] | Y
O=C(O)c1ccc(N=Nc2ccc(O)c(B(O)O)c2)cc1 | N
O=[N+]([O-])c1cc(B(O)O)ccc1Cl | Y
c1ccc(B2OCCCO2)cc1 | N
OB(O)c1cccc(Cl)c1Cl | N
OB(O)c1ccc(-c2ccc(B(O)O)cc2)cc1 | Y
OB(O)c1cccc2c1oc1ccccc12 | N

====

Recorded (d) Signal: Background: ratio (control = with no enhancer) for the following molecules
# testTarget: UniProt P00433
# Sequence (P00433 31-338): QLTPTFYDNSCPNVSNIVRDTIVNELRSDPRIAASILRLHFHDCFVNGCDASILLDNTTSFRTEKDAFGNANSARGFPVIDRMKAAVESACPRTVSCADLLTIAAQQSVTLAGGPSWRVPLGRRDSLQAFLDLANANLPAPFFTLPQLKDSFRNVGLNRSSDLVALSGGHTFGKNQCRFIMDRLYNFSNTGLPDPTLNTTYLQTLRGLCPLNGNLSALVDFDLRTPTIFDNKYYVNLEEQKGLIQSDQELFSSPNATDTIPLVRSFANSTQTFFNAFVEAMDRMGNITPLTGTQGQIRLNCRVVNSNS
# condition: 0.01 mg/ml, 10µl test compound; control value in brackets not reported
resultType: (d) Signal: Background: ratio (control = with no enhancer)

molecule | testTarget | reported
OB(O)c1cccc(Cl)c1Cl [Compound 1022, 2,3-dichlorophenylboronic acid] | UniProt P00433 | 2.2 (2.0)
Cc1ccc(B(O)O)cc1 [Compound 1034, 4-methylphenylboronic acid] | UniProt P00433 | 3.6 (1.9)
OB(O)c1cccc2c1Sc1ccccc1S2 [Compound 1007, 1-thianthreneboronic acid] | UniProt P00433 | 2.1
OB(O)c1c(Cl)cc(Cl)cc1Cl [Compound 1020, 2,4,6-trichlorophenylboronic acid] | UniProt P00433 | 2.2 (2.0)

====

# testTarget: HRP Type VIA (Armoracia rusticana)
# condition: 1 mg/ml, 10µl test compound
resultType: (b) Increase in signal (with HRP, with test cpd.)

inputSmiles | testTarget | reported
O=C(O)c1ccc(B(O)O)cc1[N+](=O)[O-] | HRP Type VIA (Armoracia rusticana) | N
OB(O)c1ccc(Nc2ccc(Cl)cc2)cc1 | HRP Type VIA (Armoracia rusticana) | Y
OB(O)c1ccccc1Cl | HRP Type VIA (Armoracia rusticana) | N
OB(O)c1ccccc1-c1ccccc1 | HRP Type VIA (Armoracia rusticana) | N
c1ccc2c(OB(Oc3cccc4ccccc34)c3cccc4ccccc34)cccc2c1 | HRP Type VIA (Armoracia rusticana) | N
CSCc1ccccc1B(O)O | HRP Type VIA (Armoracia rusticana) | N
OB(O)c1cc(N=Nc2cccc(C(F)(F)F)c2)ccc1O | HRP Type VIA (Armoracia rusticana) | N
CCCCOB(OCCCC)c1ccc(Br)cc1 | HRP Type VIA (Armoracia rusticana) | N
OB(O)c1ccc(Cl)c(Cl)c1 | HRP Type VIA (Armoracia rusticana) | N
CC(C)COB(c1ccccc1)c1ccccc1 | HRP Type VIA (Armoracia rusticana) | N

====

# testTarget: HRP Type VIA (Armoracia rusticana, UniProt P00433)
# Sequence (P00433 31-338): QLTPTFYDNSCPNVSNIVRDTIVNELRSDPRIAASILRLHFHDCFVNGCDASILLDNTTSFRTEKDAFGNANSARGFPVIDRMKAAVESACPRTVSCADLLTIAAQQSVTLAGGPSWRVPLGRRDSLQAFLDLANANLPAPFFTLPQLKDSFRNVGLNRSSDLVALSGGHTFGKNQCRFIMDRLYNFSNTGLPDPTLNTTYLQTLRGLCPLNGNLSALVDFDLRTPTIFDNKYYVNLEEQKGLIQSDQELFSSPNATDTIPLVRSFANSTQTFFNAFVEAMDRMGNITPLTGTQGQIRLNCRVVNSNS
# condition: 1 mg/ml, 10µl test compound; control value in brackets not reported
resultType: (d) Signal: Background: ratio (control = with no enhancer)

compound | reported
OB(O)c1cc(N=Nc2cccc(C(F)(F)F)c2)ccc1O [Compound 1005] | 2.4 (2.1)
Cc1ccccc1B(O)O [Compound 1009, 2-tolueneboronic acid] | 0.6 (1.8)
OB(O)c1cccc2ccccc12 [Compound 1002, 1-naphthaleneboronic acid] | 0.7 (2.3)
COc1ccc(Br)cc1B(O)O [Compound 1003, 5-bromo-2-methoxybenzeneboronic acid] | 2.6 (2.3)
OB(O)c1ccccc1-c1ccccc1 [Compound 1004, 2-biphenylboronic acid] | 1.7 (2.3)
O=C(O)c1ccc(B(O)O)cc1[N+](=O)[O-] [Compound 1045, 4-carboxy-3-nitrophenylboronic acid] | 68.5 (4.5)
c1ccc(B2OCCCO2)cc1 [Compound 1012, 2-phenyl-1,3,2-dioxaborinane] | 17.1 (2.5)
OB(O)c1ccc(Oc2ccccc2)cc1 [Compound 1010, 4-(phenoxy)benzeneboronic acid] | 5.0 (2.5)
Clc1ccc(OB(Oc2ccc(Cl)cc2)c2ccc(Cl)cc2)cc1 [Compound 1041] | 2606.2(4.5)
OB(O)c1ccc(Nc2ccc(Cl)cc2)cc1 [Compound 1033, 4-(4'-chloroanilino)phenylboronic acid] | 173.9 (4.5)
O=[N+]([O-])c1cc(B(O)O)ccc1Cl [Compound 1021, 4-chloro-3-nitrophenylboronic acid] | 247.9 (4.5)
CCCCOB(OCCCC)c1ccc(Br)cc1 [Compound 1044, 4-bromophenyl-di-n-butoxyborane] | 147.1 (4.5)

Where do these numbers come from? They come from patent EP0626016B1.
